Kindly state growth inhibition for each of the entries shown.
# experiment_description: NCI Yeast Anticancer Drug Screen. Data for the mlh1 rad18 strain (AID 175)
# conditions_used: S. cerevisiae mlh1 rad18 strain growth inhibition; at 5.0 µM (retest, dose inferred, filed as 0.5); hits give high values
The panel holds about 79,000 compounds, 15% with a hit somewhere; the sample as a whole holds those more often.
A number alone suffices; assume %.

Query :: # query: growth inhibition of entry COc1cc(CC2CC(c3ccc4c(c3)OCO4)OC2=O)cc(OC)c1OC (stereo unspecified)
Result :: -2

Query :: # query: growth inhibition of entry O=C1C=CC(=C(c2ccccc2)c2ccccc2)c2ccccc21
Result :: 69

Query :: # query: growth inhibition of entry CC(=O)OCCOCNC(=S)N/N=C(\C)c1cnccn1
Result :: -29

Query :: # query: growth inhibition of entry Fc1ccc(NC(=S)SCc2ccc(Cl)c(Cl)c2)cc1F
Result :: 33

Query :: # query: growth inhibition of entry CCN(CC)CCC(=O)c1ccc(Oc2ccc(F)cc2)cc1
Result :: 65

Query :: # query: growth inhibition of entry CCCc1cc(C(=O)OCC)cc(CCC)c1O
Result :: 2

###

# experiment_description: NCI Yeast Anticancer Drug Screen. Data for the mec2-1 strain (AID 157)
# conditions_used: S. cerevisiae mec2-1 strain, at 50.0 µM
Compounds without any hit were thinned out: in the full panel of roughly 79,000, 15% have a hit. The source made the active and inactive calls. Rule as the data show it: active = growth inhibition above about 70%; inactive = the rest.
Select the correct class. Options are active, inactive and nothing else.

Query :: For this compound, state the assay outcome: Cc1cc(O)cc(O)c1N=Nc1ccc([N+](=O)[O-])cc1
Result :: inactive

Query :: For this compound, state the assay outcome: COc1ccccc1N=NC(C(=O)c1ccccc1)C(=O)c1ccccc1
Result :: active

Query :: For this compound, state the assay outcome: O=C(N=Nc1ccccc1Cl)NNc1ccccc1Cl
Result :: inactive

###

# experiment_description: NCI Yeast Anticancer Drug Screen. Data for the rad50 strain (AID 155);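 also: 0% = growth of vehicle-only cultures of the same strain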
# conditions_used: S. cerevisiae rad50 strain growth inhibition; at 5.0 µM (retest, dose inferred, filed as 0.5)
Compounds without any hit were thinned out: in the full panel of roughly 79,000, 15% have a hit. Active and inactive are the calls of the source. Rule as the data show it: active = growth inhibition above about 70%; inactive = the rest.
Select the correct class. Options are 1 for active, -1 for inactive and nothing else.

Query :: For this compound, state the assay outcome: FC(F)(F)c1cc(NC(=S)N2c3ccccc3-n3cccc3C2c2cccnc2)cc(C(F)(F)F)c1 (stereo not drawn)
Result :: -1

Query :: For this compound, state the assay outcome: COC1=CC(=O)C(C2(OC(C)C)OC(=O)C(Cl)=C2Cl)=CC1=O (stereo not drawn)
Result :: -1

Query :: For this compound, state the assay outcome: COC(=O)CCNc1c2ccccc2nc2cccc([N+](=O)[O-])c12
Result :: 1

Query :: For this compound, state the assay outcome: CCCCCCc1cc(C(=O)OC/C(C)=N/NC(N)=O)c2ccccc2n1
Result :: -1

Query :: For this compound, state the assay outcome: COC1C=COC2(C)Oc3c(C)c(O)c4c(c3C2=O)/C(=N/C2CCC(O)OC2C)C=C(NC(=O)/C(C)=C\C(=O)C2CC2C(O)C(C)C(O)C(C)C(OC(C)=O)C1C)C4=O (stereo not drawn)
Result :: -1

Query :: For this compound, state the assay outcome: CCN(CC)C(=S)N/N=C(/C)c1cccc(/C(C)=N\NC(=S)N(CC)CC)n1
Result :: -1

Query :: For this compound, state the assay outcome: CC(=O)Cc1ccc[cH-]1.[Fe+2].c1cc[cH-]c1
Result :: -1

Query :: For this compound, state the assay outcome: CC(/C=C/c1ccc(Cl)cc1)=N\NC(=S)NCC(C)C
Result :: -1

Query :: For this compound, state the assay outcome: CNC(=O)OCc1c(COC(=O)NC)c(-c2ccc(Cl)c(Cl)c2)n2c1CCC2
Result :: -1

Query :: For this compound, state the assay outcome: CN(C)C[C@H]1CC[C@@H](CN(C)C)C1=O
Result :: -1

Query :: For this compound, state the assay outcome: CC(C)=CC(=O)O[C@@H]1CC(C)(C)CC2C3=CCC4[C@]56CC[C@](O)(OC5)C(C)(C)C6CC[C@@]4(C)C3(C)CC[C@]21C(=O)O (stereo partly drawn)
Result :: -1

Query :: For this compound, state the assay outcome: CC(=O)N/N=C/C(C)(C)C(C)(C)/C=N/NC(C)=O
Result :: -1

Query :: For this compound, state the assay outcome: BrCC[P+](c1ccccc1)(c1ccccc1)c1ccccc1
Result :: -1

Query :: For this compound, state the assay outcome: O=C1C(=O)c2ccccc2C=C1[N+](=O)[O-]
Result :: -1

Query :: For this compound, state the assay outcome: C/C(=N/NC(=S)N1CCCCCC1)c1cccc(/C(C)=N\NC(=S)N2CCCCCC2)n1
Result :: -1

Query :: For this compound, state the assay outcome: C[S+](C)C1(c2ccccc2)C(=O)c2ccccc2C1=O
Result :: -1

Query :: For this compound, state the assay outcome: O=C(NC(Nc1ccc(F)c(Cl)c1)(C(F)(F)F)C(F)(F)F)C(C(F)(F)F)C(F)(F)F
Result :: -1

Query :: For this compound, state the assay outcome: CCOC(=O)[C@H]1Nc2ccccc2C2c3ccccc3CC21 (stereo partly drawn)
Result :: -1

Query :: For this compound, state the assay outcome: O=C1OC(CCl)CN1/N=C/c1ccc([N+](=O)[O-])o1 (stereo not drawn)
Result :: -1

Query :: For this compound, state the assay outcome: OCC1OC(OCC(O)C(O)C(O)C(/C=N/Nc2ccccc2)=N/Nc2ccccc2)C(O)C(O)C1O (stereo not drawn)
Result :: -1

Query :: For this compound, state the assay outcome: Cc1cc(CO)c(O)c(CNCc2cc(C)cc(CO)c2O)c1
Result :: -1

Query :: For this compound, state the assay outcome: O=[N+]([O-])c1ccc2nc3ccccc3cc2c1
Result :: -1

Query :: For this compound, state the assay outcome: O=C1c2ccccc2-c2nc3ccccc3nc21
Result :: 1

###

# experiment_description: NCI Yeast Anticancer Drug Screen. Data for the bub3 strain (AID 167)
# conditions_used: S. cerevisiae bub3 mutant strain, at 11.0 µM
About 79,000 compounds went through this panel and 15% of them were active in at least one assay; those are over-represented in the sample as a whole. Activity calls are given as the source filed them. No stated cut-off is given here; in the data, active means growth inhibition above about 70%; inactive means the rest.
Select the correct class. Options are active, inactive and nothing else.

Query :: For this molecule, state the assay outcome: CCC[CH2][Ge]([CH2]CCC)([CH2]CCC)[O]C(=O)C(OC)c1ccccc1 (configuration not stated)
Result :: inactive

Query :: For this molecule, state the assay outcome: COc1ccccc1/C=C1\Sc2scc(-c3cccc([N+](=O)[O-])c3)[n+]2C1=O
Result :: active

Query :: For this molecule, state the assay outcome: COC(=O)CCNc1c2ccccc2nc2cccc([N+](=O)[O-])c12
Result :: inactive

Query :: For this molecule, state the assay outcome: N/C(=N\OC(=O)NC(Cl)=C(Cl)Cl)c1cc(C(F)(F)F)cc(C(F)(F)F)c1
Result :: inactive

Query :: For this molecule, state the assay outcome: C/C(=N\NC(=S)SCc1ccccc1)c1ccccn1
Result :: active

Query :: For this molecule, state the assay outcome: COc1ccc2ccc3ccccc3c2c1C=O
Result :: inactive

Query :: For this molecule, state the assay outcome: CC(C)(Br)C(=O)/C=C/c1ccc(Cl)c(Cl)c1
Result :: inactive

###

# experiment_description: NCI Yeast Anticancer Drug Screen. Data for the rad50 strain (AID 155);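 also: 0% = growth of vehicle-only cultures of the same strain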
# conditions_used: S. cerevisiae rad50 strain growth inhibition; at 33.0 µM
Compounds without any hit were thinned out: in the full panel of roughly 79,000, 15% have a hit. Activity calls are given as the source filed them. Rule as the data show it: active = growth inhibition above about 70%; inactive = the rest.
Select the correct class. Options are Yes (active), No (inactive) and nothing else.

Query :: For this molecule, state the assay outcome: CCCCCCCCCC/C=C\C(=O)O
Result :: No

Query :: For this molecule, state the assay outcome: Cc1ccc(C2C(Cl)C(=O)N2n2cnc3ccccc3c2=O)cc1 (configuration not stated)
Result :: No

Query :: For this molecule, state the assay outcome: O=Cc1cccc2ccc3ccccc3c12
Result :: Yes

Query :: For this molecule, state the assay outcome: COc1cc2c3c(cccc3c1)C(=O)N(CCN(C)C)C2=O
Result :: No

Query :: For this molecule, state the assay outcome: O=C1c2ccccc2-c2n[nH]c3cccc1c23
Result :: Yes

Query :: For this molecule, state the assay outcome: C/C(=N\NC(=S)N1CCCCC1)c1cccc(C)n1
Result :: Yes

Query :: For this molecule, state the assay outcome: COc1ccc(O)c(/C=N\Nc2ccccc2)c1
Result :: No

Query :: For this molecule, state the assay outcome: O=C1C=CC(=O)N1c1ccc2c(c1)Cc1cc(NC(=O)C(F)(F)F)ccc1-2
Result :: Yes

Query :: For this molecule, state the assay outcome: COc1cc(CC2CC(c3ccc4c(c3)OCO4)OC2=O)cc(OC)c1OC (configuration not stated)
Result :: No

Query :: For this molecule, state the assay outcome: COc1ccc2ccc3ccccc3c2c1C=O
Result :: No

Query :: For this molecule, state the assay outcome: c1ccc2c(c1)C(=NCCCN1CCCCCC1)c1cccn1-2
Result :: No

Query :: For this molecule, state the assay outcome: O=[N+]([O-])c1cccc2nccc(NCCCO)c12
Result :: No
